molecular target: PPARα (Homo sapiens, UniProt Q07869); construct: hPPARα (279aa-580aa); assay: Gal4-PPARα(LBD) reporter gene agonistic activity assay in Cos-7 cells; details: Cos-7 cells, Gal4-PPARα(LBD) reporter, 16 h; 100% = GW7647 10 nM
Sequence (Q07869 167-468 limits assumed): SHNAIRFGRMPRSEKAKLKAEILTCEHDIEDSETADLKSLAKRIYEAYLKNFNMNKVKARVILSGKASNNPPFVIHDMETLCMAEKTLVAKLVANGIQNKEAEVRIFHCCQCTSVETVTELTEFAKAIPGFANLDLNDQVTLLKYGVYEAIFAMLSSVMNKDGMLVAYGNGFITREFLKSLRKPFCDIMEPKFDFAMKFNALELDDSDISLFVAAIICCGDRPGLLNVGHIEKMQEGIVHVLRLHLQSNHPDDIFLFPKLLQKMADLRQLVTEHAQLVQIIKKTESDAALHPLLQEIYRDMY
pEC50: −log10 of the molar value.

{"COMPOUND": "Cc1cc(Cn2ncn(-c3ccc(C(C)C)cc3)c2=O)cc(C)c1OC(C)(C)C(=O)O [Compound 115]", "pEC50": 8.10}
{"COMPOUND": "CC(C)(Oc1c(Cl)cc(Cn2ncn(-c3ccc(C(F)(F)F)cc3)c2=O)cc1Cl)C(=O)O [Compound 129]", "pEC50": 7.64}
{"COMPOUND": "CC(C)(Oc1ccc(Cn2ncn(-c3ccc(C(F)(F)F)cc3)c2=O)cc1F)C(=O)O [Compound 123]", "pEC50": 6.40}
{"COMPOUND": "Cc1cc(Cn2ncn(-c3ccccc3)c2=O)cc(C)c1OC(C)(C)C(=O)O [Compound 63]", "pEC50": 5.99}

====

Target: PPARδ (Homo sapiens)
Construct: expressed in transfected cells; host or cells: Cos-7
Sequence (Q03181 139-441 limits assumed): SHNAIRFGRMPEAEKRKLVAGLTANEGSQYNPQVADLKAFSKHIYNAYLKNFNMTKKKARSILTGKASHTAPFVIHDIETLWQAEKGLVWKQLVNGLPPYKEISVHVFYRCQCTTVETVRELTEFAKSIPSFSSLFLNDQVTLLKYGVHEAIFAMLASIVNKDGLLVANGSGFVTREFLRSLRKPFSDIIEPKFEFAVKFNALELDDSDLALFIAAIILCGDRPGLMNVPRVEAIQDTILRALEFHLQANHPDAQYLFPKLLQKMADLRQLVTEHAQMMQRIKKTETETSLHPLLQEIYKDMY
Experiment: Gal4-PPARδ(LBD) reporter gene agonistic activity assay in Cos-7 cells
Type: cell-based
Settings: Cos-7 cells, Gal4-PPARδ(LBD) reporter, 16 h; 100% = GW501516 10 nM
The entries below are paired with their reported log10 EC50.
RECORDED_METRIC: log10 EC50 (log10 of the value in nM)

{"MOLECULE": "Cc1cc(Cn2ncn(-c3cccc(C(F)(F)F)c3)c2=O)cc(C)c1OC(C)(C)C(=O)O [Compound 121]", "log10 EC50": 1.59}
{"MOLECULE": "Cc1cc(Cn2ncn(-c3ccc(-c4ccccc4)cc3)c2=O)cc(C)c1OC(C)(C)C(=O)O [Compound 117]", "log10 EC50": 2.13}
{"MOLECULE": "COc1ccc(-n2cnn(Cc3cc(C)c(OC(C)(C)C(=O)O)c(C)c3)c2=O)cc1 [Compound 107]", "log10 EC50": 2.44}
{"MOLECULE": "CCOc1ccc(-n2cnn(Cc3cc(C)c(OC(C)(C)C(=O)O)c(C)c3)c2=O)cc1 [Compound 69]", "log10 EC50": 2.68}
{"MOLECULE": "CC(C)(Oc1ccc(Cn2ncn(-c3ccc(OC(F)(F)F)cc3)c2=O)cc1OC(F)(F)F)C(=O)O [Compound 103]", "log10 EC50": 2.44}
{"MOLECULE": "Cc1cc(Cn2ncn(-c3ccc(OC(F)(F)F)cc3)c2=O)ccc1OC(C)(C)C(=O)O [Compound 79]", "log10 EC50": 2.79}
{"MOLECULE": "CC(C)(Oc1c(F)cc(Cn2ncn(-c3ccc(OC(F)(F)F)cc3)c2=O)cc1F)C(=O)O [Compound 155]", "log10 EC50": 3.14}
{"MOLECULE": "Cc1ccc(-n2cnn(Cc3cc(C)c(OC(C)(C)C(=O)O)c(C)c3)c2=O)cc1 [Compound 65]", "log10 EC50": 2.39}
{"MOLECULE": "Cc1cc(CCn2ncn(-c3ccc(C(F)(F)F)cc3)c2=O)cc(C)c1OC(C)(C)C(=O)O [Compound 194]", "log10 EC50": 1.58}
{"MOLECULE": "Cc1cc(OCn2ncn(-c3ccc(C(F)(F)F)cc3)c2=O)cc(C)c1OC(C)(C)C(=O)O [Compound 196]", "log10 EC50": 1.75}

====

biological target: PPARδ (Homo sapiens); construct: expressed in transfected cells; host or cells: Cos-7; test: Gal4-PPARδ(LBD) reporter gene agonistic activity assay in Cos-7 cells; format: cell-based
The entries below are paired with their reported EC50.

{"SMILES_STRUCTURE": "Cc1cc(Cn2ncn(-c3ccc(Br)cc3)c2=O)cc(C)c1OC(C)(C)C(=O)O", "EC50 (nM)": 22}
{"SMILES_STRUCTURE": "[2H]C([2H])(c1cc(C)c(OC(C)(C)C(=O)O)c(C)c1)n1ncn(-c2ccc(C(F)(F)F)cc2)c1=O", "EC50 (nM)": 7}
{"SMILES_STRUCTURE": "Cc1cc(Cn2ncn(-c3ccc(OC(F)(F)F)cc3)c2=O)cc(Cl)c1OC(C)(C)C(=O)O", "EC50 (nM)": 29}
{"SMILES_STRUCTURE": "Cc1cc(Cn2ncn(-c3ccc(C(F)(F)F)cc3)c2=O)cc(C(F)(F)F)c1OC(C)(C)C(=O)O", "EC50 (nM)": 1}
{"SMILES_STRUCTURE": "Cc1cc(Cn2ncn(-c3ccc(C(F)(F)F)cc3)c2=O)cc(C)c1OC(C)(C)C(=O)O", "EC50 (nM)": 2}
{"SMILES_STRUCTURE": "Cc1cc(Cn2ncn(-c3ccc(OC(F)(F)F)cc3)c2=O)cc(C(F)(F)F)c1OC(C)(C)C(=O)O", "EC50 (nM)": 6}
{"SMILES_STRUCTURE": "Cc1cc(Cn2ncn(-c3ccc(C(F)(F)F)cc3)c2=O)cc(Cl)c1OC(C)(C)C(=O)O", "EC50 (nM)": 15}

====

test: Pharmacokinetic evaluation in mice; format: in vivo, C57BL/6J mice; settings: male, C57BL/6J, mouse, plasma, 10 mg/kg, oral administration, 10 mpk, read-out: Area under the curve AUC(0-∞)

{"COMPOUND": "Cc1cc(Cn2ncn(-c3ccc(C(F)(F)F)cc3)c2=O)cc(C)c1OC(C)(C)C(=O)O [Compound 57]", "AUC(0-inf)": "18600 ng·h/mL"}

====

target: PPARα (Homo sapiens); construct: hPPARα (279aa-580aa); experiment: Gal4-PPARα(LBD) reporter gene agonistic activity assay in Cos-7 cells; conditions: Cos-7 cells, Gal4-PPARα(LBD) reporter, 16 h; 100% = GW7647 10 nM
pEC50: −log10 of the molar value.

{"SMILES_STRUCTURE": "Cc1cc(CCCn2ncn(-c3ccc(C(F)(F)F)cc3)c2=O)cc(C)c1OC(C)(C)C(=O)O", "pEC50": 6.87}
{"SMILES_STRUCTURE": "Cc1cc(SCn2ncn(-c3ccc(C(F)(F)F)cc3)c2=O)cc(C)c1OC(C)(C)C(=O)O", "pEC50": 6.54}
{"SMILES_STRUCTURE": "CC(C)(Oc1ccc(Cn2ncn(-c3ccc(OC(F)(F)F)cc3)c2=O)cc1F)C(=O)O", "pEC50": 6.66}
{"SMILES_STRUCTURE": "Cc1cc(Cn2ncn(-c3ccc(F)cc3)c2=O)cc(C)c1OC(C)(C)C(=O)O", "pEC50": 6.19}
{"SMILES_STRUCTURE": "Cc1cc(Cn2ncn(-c3ccc(C(F)(F)F)cc3)c2=O)ccc1OC(C)(C)C(=O)O", "pEC50": 6.99}
{"SMILES_STRUCTURE": "CC(C)(Oc1ccc(Cn2ncn(-c3ccc(C(F)(F)F)cc3)c2=O)cc1Cl)C(=O)O", "pEC50": 6.79}
{"SMILES_STRUCTURE": "CCc1cc(Cn2ncn(-c3ccc(OC(F)(F)F)cc3)c2=O)cc(CC)c1OC(C)(C)C(=O)O", "pEC50": 7.23}
{"SMILES_STRUCTURE": "Cc1cc(Cn2ncn(-c3ccc(OC(F)(F)F)cc3)c2=O)ccc1OC(C)(C)C(=O)O", "pEC50": 6.47}
{"SMILES_STRUCTURE": "Cc1cc(Cn2ncn(-c3ccc(OC(F)(F)F)cc3)c2=O)cc(Cl)c1OC(C)(C)C(=O)O", "pEC50": 8.10}
